Reference source: patent US10590140B2

# Ki annotations
# test.system: human α2δ-1 subunit of Cav2.2 calcium channel (Homo sapiens (Human), UniProt P54289)
# Sequence (P54289 25-1103): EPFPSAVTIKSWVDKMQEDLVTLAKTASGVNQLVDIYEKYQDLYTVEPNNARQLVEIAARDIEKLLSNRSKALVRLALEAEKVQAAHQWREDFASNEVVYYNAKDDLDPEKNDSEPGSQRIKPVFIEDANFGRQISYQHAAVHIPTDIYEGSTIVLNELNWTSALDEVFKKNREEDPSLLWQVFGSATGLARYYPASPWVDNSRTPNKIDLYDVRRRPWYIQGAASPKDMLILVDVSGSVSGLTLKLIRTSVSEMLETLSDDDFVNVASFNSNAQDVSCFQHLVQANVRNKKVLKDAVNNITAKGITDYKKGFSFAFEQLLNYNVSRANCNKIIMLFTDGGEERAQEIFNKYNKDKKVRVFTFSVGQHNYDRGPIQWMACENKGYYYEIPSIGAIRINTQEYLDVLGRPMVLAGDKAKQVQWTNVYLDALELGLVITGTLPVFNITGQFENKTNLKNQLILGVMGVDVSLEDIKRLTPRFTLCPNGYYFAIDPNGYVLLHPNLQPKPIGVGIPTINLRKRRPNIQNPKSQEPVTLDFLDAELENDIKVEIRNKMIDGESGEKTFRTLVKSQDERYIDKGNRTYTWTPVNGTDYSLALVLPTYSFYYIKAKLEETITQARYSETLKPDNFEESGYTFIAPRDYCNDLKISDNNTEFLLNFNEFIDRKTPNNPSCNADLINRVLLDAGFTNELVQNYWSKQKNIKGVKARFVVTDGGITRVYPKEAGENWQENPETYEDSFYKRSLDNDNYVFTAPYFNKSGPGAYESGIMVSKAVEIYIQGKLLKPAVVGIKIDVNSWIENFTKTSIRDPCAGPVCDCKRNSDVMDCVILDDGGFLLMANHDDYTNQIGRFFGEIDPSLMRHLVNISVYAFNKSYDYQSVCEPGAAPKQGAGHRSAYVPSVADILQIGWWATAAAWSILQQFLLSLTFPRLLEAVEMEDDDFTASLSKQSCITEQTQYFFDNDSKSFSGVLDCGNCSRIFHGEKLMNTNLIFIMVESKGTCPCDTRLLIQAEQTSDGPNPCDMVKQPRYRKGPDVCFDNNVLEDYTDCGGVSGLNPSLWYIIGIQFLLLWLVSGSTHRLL
# run.description: Binding assay to human α2δ-1 subunit of Cav2.2 calcium channel ([3H]-Gabapentin)
# experimental.conditions: Table 2, dual compounds; [3H]-Gabapentin binding; read-out: Ki (nM) α2δ-1
# Procedure: Binding Assay to Human α2δ-1 Subunit of Cav2.2 Calcium Channel. NSB (non specific binding) was measured by adding 10 μM pregabalin. […] Filter plates were dried at 60° C. for 1 hour and 30 μl of scintillation cocktail were added to each well before radioactivity reading.

- compound: "CCNc1ncc2c(n1)N(C)CCN(c1cccc(-n3cc(CN(C)CC4CC4)nn3)c1)C2=O"
  test.system: "human α2δ-1 subunit of Cav2.2 calcium channel (Homo sapiens (Human), UniProt P54289)"
  Ki: "100 to 500 nM"
- compound: "CNCC[C@H](Oc1ccc(CN2CCN(C)c3cc(C)ncc3C2=O)cc1)c1cccs1"
  test.system: "human α2δ-1 subunit of Cav2.2 calcium channel (Homo sapiens (Human), UniProt P54289)"
  Ki: "100 to 500 nM"
- compound: "CNCC[C@H](Oc1ccc(CN2CCN(C)c3cc(OC)ncc3C2=O)cc1)c1cccs1"
  test.system: "human α2δ-1 subunit of Cav2.2 calcium channel (Homo sapiens (Human), UniProt P54289)"
  Ki: "100 to 500 nM"
- compound: "CNCCC(Oc1ccc(CN2CCN(C)c3nc(C)ncc3C2=O)cc1)c1ccccc1 (stereo not shown)"
  test.system: "human α2δ-1 subunit of Cav2.2 calcium channel (Homo sapiens (Human), UniProt P54289)"
  Ki: "> 3000 nM"
- compound: "CNCC[C@H](Oc1ccc(CN2CCN(C)c3ncncc3C2=O)cc1)c1ccccc1"
  test.system: "human α2δ-1 subunit of Cav2.2 calcium channel (Homo sapiens (Human), UniProt P54289)"
  Ki: "500 to 3000 nM"
- compound: "CNCCC(OCc1cccc(N2CCN(C)c3nc(NCc4ccccc4)ncc3C2=O)c1)c1ccccc1 (stereo not shown)"
  test.system: "human α2δ-1 subunit of Cav2.2 calcium channel (Homo sapiens (Human), UniProt P54289)"
  Ki: "500 to 3000 nM"
- compound: "CNCC[C@@H](OCc1cccc(N2CCN(C)c3nc(NCc4ccccn4)ncc3C2=O)c1)c1ccccc1"
  test.system: "human α2δ-1 subunit of Cav2.2 calcium channel (Homo sapiens (Human), UniProt P54289)"
  Ki: "100 to 500 nM"

* * *

# Ki annotations
# test.system: human α2δ-1 subunit of Cav2.2 calcium channel (Homo sapiens (Human))
# run.description: Binding assay to human α2δ-1 subunit of Cav2.2 calcium channel ([3H]-Gabapentin)
# experimental.conditions: binding to α2δ-1, [3H]-Gabapentin; read-out: Ki (nM) α2δ-1

- compound: "CCNc1ncc2c(n1)N(C)CCN(c1cccc(-n3cc(CN4CCCCC4)nn3)c1)C2=O [Example 281]"
  Ki: "100 to 500 nM"
- compound: "CNCC[C@H](Oc1ccc(CN2CCN(C)c3cc(C)ncc3C2=O)cc1)c1cccs1 [Example 308]"
  Ki: "100 to 500 nM"
- compound: "CCNc1ncc2c(n1)N(C)CCN(Cc1cccc(COC(CNC)c3ccccc3)c1)C2=O (centres unmarked) [Example 411]"
  Ki: "> 3000 nM"
- compound: "CCNc1ncc2c(n1)N(C)CCN(c1cccc(OC(CN(C)CCc3ccccc3)C(C)C)c1)C2=O (centres unmarked) [Example 268]"
  Ki: "500 to 3000 nM"
- compound: "CCNc1ncc2c(n1)N(C)CCN(c1cccc(-n3cnc(CN(C)C(=O)OC(C)(C)C)c3)c1)C2=O [Example 123]"
  Ki: "> 3000 nM"
- compound: "CCNc1ncc2c(n1)N(C)CCN(c1cccc(-n3cc(CN4CCN(c5ccccc5)CC4)nn3)c1)C2=O [Example 280]"
  Ki: "100 to 500 nM"
- compound: "CCNc1ncc2c(n1)N(C)CCN(c1cccc(-n3cc(CN(C)CC4CC4)nn3)c1)C2=O [Example 246]"
  Ki: "100 to 500 nM"
- compound: "CSc1ncc2c(n1)N(C)CCN(c1cccc(Br)c1)C2=O [Example 35]"
  Ki: "> 3000 nM"
- compound: "CNCCC(Oc1ccccc1CN1CCN(C)c2nc(SC)ncc2C1=O)c1ccccc1 (centres unmarked) [Example 370]"
  Ki: "> 3000 nM"
- compound: "CCNc1ncc2c(n1)N(C)CCN(c1cccc(-n3cc(CN(Cc4ccccc4)C(=O)OC(C)(C)C)nn3)c1)C2=O [Example 118]"
  Ki: "> 3000 nM"
- compound: "CCNc1ncc2c(n1)N(C)CCN(c1ccc(OC(CN(C)C(=O)OC(C)(C)C)c3ccccc3)cc1)C2=O (centres unmarked) [Example 76]"
  Ki: "> 3000 nM"
- compound: "CNCC[C@H](Oc1ccc(CN2CCN(C)c3ccncc3C2=O)cc1)c1cccs1 [Example 382]"
  Ki: "100 to 500 nM"
- compound: "CCNc1ncc2c(n1)N(C)CCN(c1cccc(-n3cnc(CN(C)CCc4ccccc4)c3)c1)C2=O [Example 254]"
  Ki: "500 to 3000 nM"
- compound: "CNCC[C@H](OCc1cccc(N2CCN(C)c3nc(N)ncc3C2=O)c1)c1ccccc1 [Example 332]"
  Ki: "> 3000 nM"
- compound: "CSc1ncc2c(n1)N(C)CCN(c1cccc(OC3CCN(C(=O)OC(C)(C)C)C3)c1)C2=O (centres unmarked) [Example 27]"
  Ki: "> 3000 nM"
- compound: "CSc1ncc2c(n1)N(C)CCN(c1cccc(COC(C)CCN(C)C(=O)OC(C)(C)C)c1)C2=O (centres unmarked) [Example 50]"
  Ki: "> 3000 nM"
- compound: "CCc1ncc2c(n1)N(C)CCN(Cc1ccc(OC(CCNC)c3ccccc3)cc1)C2=O (centres unmarked) [Example 426]"
  Ki: "500 to 3000 nM"
- compound: "CCNc1ncc2c(n1)N(C)CCN(Cc1ccc(O[C@@H](CCNC)c3ccccc3)cc1)C2=O [Example 414]"
  Ki: "500 to 3000 nM"
- compound: "CNCC[C@H](Oc1ccc(CN2CCN(C)c3ccncc3C2=O)cc1)c1ccccc1 [Example 377]"
  Ki: "500 to 3000 nM"
- compound: "CCNc1ncc2c(n1)N(C)CCN(c1cccc(COC(CCNC)C(C)C)c1)C2=O (centres unmarked) [Example 189]"
  Ki: "500 to 3000 nM"
